Entry source: patent US20220135701A1

As shown below, each of these binders has a reported Kd value.
Tested On: T1, MuMER (E23-S496) (mouse, UniProt Q60805 23-496)
T1 construct: range 23-496; also called mouse MerTK extracellular domain
T1 sequence (looked up): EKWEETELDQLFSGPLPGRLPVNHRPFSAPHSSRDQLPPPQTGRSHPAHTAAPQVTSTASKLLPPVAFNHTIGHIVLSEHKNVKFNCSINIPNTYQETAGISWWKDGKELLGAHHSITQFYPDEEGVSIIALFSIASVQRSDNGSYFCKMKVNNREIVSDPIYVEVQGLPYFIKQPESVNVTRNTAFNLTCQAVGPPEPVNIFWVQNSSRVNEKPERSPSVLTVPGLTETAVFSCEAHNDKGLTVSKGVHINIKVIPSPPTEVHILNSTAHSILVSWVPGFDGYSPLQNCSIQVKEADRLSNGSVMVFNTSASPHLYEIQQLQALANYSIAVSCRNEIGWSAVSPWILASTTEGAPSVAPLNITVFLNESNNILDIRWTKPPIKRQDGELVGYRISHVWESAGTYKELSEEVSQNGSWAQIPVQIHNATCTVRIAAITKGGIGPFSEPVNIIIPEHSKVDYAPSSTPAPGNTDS
Experimental Details: SPR BIAcore T200, Ab captured, 25C
Output spec: scalar in nM, unitless text.

Guide cases for Kd, answers given:
>>> test_result("Rbt10C3 (antibody, V domains shown, Recombinant rabbit monoclonal antibody, Expi293, protein A purified) VH: QSLEESGGRLVTPGTPLTLTCTASGFSLSGYTMGWVRQAPGKGLEYIGVISSGGTTYYTNWAKGRFTISKTSTTVDLKITSPTTEDTATYFCARVAFTAYGGGGFPTLHRLDLWGQGTLVTVSS VL: AQVLIQTASSVSAAVGGTVTISCQSSESVYNNDYLAWYQQKPGQPPKLLIYSASTLASGVPSRFKGSGSGTQFTLTISDLECDDAATYYCAGGYLGNNVFGGGTEVVVK")
0.7
>>> test_result("Rbt8F4 (antibody, V domains shown, Recombinant rabbit monoclonal antibody, Expi293, protein A purified) VH: QSVQESGGRLVTPGTPLTLTCTVSGFSLINYPMSWVRQAPGKGLEWIGVISSTGGTNYASWAKGRFTISKTSTTVDLKITSPTTEDTATYFCARVDFLVYLGGAYIIWGLDLWGQGTLVTVSS VL: AAVLTQTPSPVSAAVGGTVTINCQSSPNIYSNYLSWFQQKPGQPPKILIYGASTLASGVPSRFKGSGSGTQFTLTISDVQCDDAATYYCAGGYSDSSEAYAFGGGTEVVVK")
2.3
>>> test_result("Rbt12H4 (antibody, V domains shown, Recombinant rabbit monoclonal antibody, Expi293, protein A purified) VH: QSVEESGGRLVTPGTPLTVTCTVSGFSLSVYGMGWVRQAPGKGLEYIGFINNVGNTYYASWAKGRFTISKTSTTVDLKITSPTTEDTATYFCAKGGGGDWGYFNIWGPGTLVTVSL VL: DVVMTQTPASVEAAVGGTVTIKCQASQSIGNALAWYQQKPGQRPKLLIYAASNLASGVPSRFAGSGSGTQFTLTISDLECADAATYYCQTYYAINRYGGAFGGGTEVVVK")
8.5

Note down Kd recorded for Rbt9E3.FN (antibody, V domains shown, Recombinant rabbit monoclonal antibody, Expi293, protein A purified) VH: QSVEESGGRLVTPGTPLTLTCTVSGFSLSSNAMSWVRQAPGKGLEWIGIISSSGSTYSASWAKGRFTISKTSTTMDLKITSPTTEDTATYFCARVGFFVGYGAYDYGIIHRLDLWGQGTLVTVSS VL: AAVLTQTPSPVSAAVGGTVSISCQSSKSIYNNNWLSWYQQKPGQPPKLLIYDASDLASGVPSRFEGSGSGTEFTLTISDLECDDAATYYCAGGYSGDSDYAFGGGTEVVVK 0.6

Return reported Kd. Input binder: Rbt13D8 (antibody, V domains shown, Recombinant rabbit monoclonal antibody, Expi293, protein A purified) VH: QSLEESGGRLVTPGTPLTLTCTVSGFSFSSYSMGWVRQAPGKGPEYIGVISASGTTYYASWVNGRFTISKTSTTMDLKMTSPTAADTATYFCARAAFTAYNRGSCVIHRLDLWGQGTLVTVSS VL: AQVLTQTASSVSAAVGGTVTINCQASQSVYDSKWLAWYQQKPGQPPKLLIYSASTLASGVPSRFKGSGSGTQFTLTISDLECDDAATYYCAGAYTDNIVFGGGTEVVVK 1.2
